# Tested on: Crude diglycosidase
# method: Examination of substrate concentration in the conversion into isoflavone aglycons by diglycosidase using soybean materials;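 note: percent of the isoflavone family total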
# Type: biochemical, Penicillium multicolor IAM7153
# conditionSet: roasted soy flour, substrate concentration 2%, heat treatment of enzyme no, reaction time 0 h
readoutType: Decomposition efficiency: ratio of each glycoside/aglycon within its isoflavone family

compound	measured
O=C(O)CC(=O)OC[C@H]1O[C@@H](Oc2ccc3c(=O)c(-c4ccc(O)cc4)coc3c2)[C@H](O)[C@@H](O)[C@@H]1O [malonyldaidzin, 6″-O-malonyldaidzin]	not detected
O=C(O)CC(=O)OC[C@H]1O[C@@H](Oc2cc(O)c3c(=O)c(-c4ccc(O)cc4)coc3c2)[C@H](O)[C@@H](O)[C@@H]1O [malonylgenistin, 6″-O-malonylgenistin]	not detected
COc1cc2c(=O)c(-c3ccc(O)cc3)coc2cc1O[C@@H]1O[C@H](COC(=O)CC(=O)O)[C@@H](O)[C@H](O)[C@H]1O [malonylglycitin, 6″-O-malonylglycitin]	not detected

====

# System: Crude diglycosidase
# method: Examination of substrate concentration in the conversion into isoflavone aglycons by diglycosidase using soybean materials;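 note: percent of the isoflavone family total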
# Format: biochemical, Penicillium multicolor IAM7153
# conditionSet: roasted soy flour, substrate concentration 5%, heat treatment of enzyme no, reaction time 1 h
readoutType: Decomposition efficiency: ratio of each glycoside/aglycon within its isoflavone family

compoundStructureString	measured
O=c1c(-c2ccc(O)cc2)coc2cc(O[C@@H]3O[C@H](CO)[C@@H](O)[C@H](O)[C@H]3O)ccc12	not detected
O=C(O)CC(=O)OC[C@H]1O[C@@H](Oc2ccc3c(=O)c(-c4ccc(O)cc4)coc3c2)[C@H](O)[C@@H](O)[C@@H]1O	not detected
O=c1c(-c2ccc(O)cc2)coc2cc(O[C@@H]3O[C@H](CO)[C@@H](O)[C@H](O)[C@H]3O)cc(O)c12	not detected

====

# Tested on: β-Glucosidase derived from A. niger
# method: Reactivity toward various isoflavone glycosides (HPLC)
# Type: biochemical, Aspergillus niger
# Parameters: unit not given here
# conditionSet: Reaction time 6 h; 55 °C, pH 4.0
readoutType: aglycon
Give the figure only, with no unit attached.

Prompt: Find the recorded aglycon belonging to O=c1c(-c2ccc(O)cc2)coc2cc(O[C@@H]3O[C@H](CO)[C@@H](O)[C@H](O)[C@H]3O)ccc12 [daidzin] and report it.
Response: 100

Prompt: Find the recorded aglycon belonging to O=C(O)CC(=O)OC[C@H]1O[C@@H](Oc2cc(O)c3c(=O)c(-c4ccc(O)cc4)coc3c2)[C@H](O)[C@@H](O)[C@@H]1O [malonylgenistin, 6″-O-malonylgenistin] and report it.
Response: 12.1

Prompt: Find the recorded aglycon belonging to CC(=O)OC[C@H]1O[C@@H](Oc2ccc3c(=O)c(-c4ccc(O)cc4)coc3c2)[C@H](O)[C@@H](O)[C@@H]1O [acetyldaidzin, 6″-O-acetyldaidzin] and report it.
Response: 9

====

Hi there, I'd appreciate the recorded aglycon for every entry that follows.
# Test system: Diglycosidase derived from P. multicolor
# method: Reactivity toward various isoflavone glycosides (HPLC)
# Format: biochemical, Penicillium multicolor
# Set-up: unit not given here
# conditionSet: Reaction time 3 h; 55 °C, pH 4.0
Give the figure only, with no unit attached.

Prompt: Find the recorded aglycon belonging to CC(=O)OC[C@H]1O[C@@H](Oc2ccc3c(=O)c(-c4ccc(O)cc4)coc3c2)[C@H](O)[C@@H](O)[C@@H]1O [acetyldaidzin, 6″-O-acetyldaidzin] and report it.
Response: 96.2

Prompt: Find the recorded aglycon belonging to O=C(O)CC(=O)OC[C@H]1O[C@@H](Oc2cc(O)c3c(=O)c(-c4ccc(O)cc4)coc3c2)[C@H](O)[C@@H](O)[C@@H]1O [malonylgenistin, 6″-O-malonylgenistin] and report it.
Response: 82.1

Prompt: Find the recorded aglycon belonging to CC(=O)OC[C@H]1O[C@@H](Oc2cc(O)c3c(=O)c(-c4ccc(O)cc4)coc3c2)[C@H](O)[C@@H](O)[C@@H]1O [acetylgenistin, 6″-O-acetylgenistin] and report it.
Response: 99.9

Prompt: Find the recorded aglycon belonging to O=c1c(-c2ccc(O)cc2)coc2cc(O[C@@H]3O[C@H](CO)[C@@H](O)[C@H](O)[C@H]3O)ccc12 [daidzin] and report it.
Response: 81.8
